This collection of values is drawn from patent US20190321483A1.

Reported EC50 (ng/ml), cell viability after 7 days, Human CD34+ cells by item:
- targetEntity: Human cKIT on human mobilized peripheral blood hematopoietic stem cells (human, UniProt P10721 26-976)
- assaySummary: cell-based or functional assay
Report only the number, with the unit ng/mL understood.

Please review the entries below; each comes with its answer.
INSERT INTO results (binder, measvalue) VALUES
  ('J22: Anti-cKIT Fab′3 conjugated to Compound (2), DAR 4 (Fab, V domains shown, Compound (2) on native cysteine LC-214C (EU); Compound (2) on native cysteines HC-220C-226C-229C (EU)) VH: QVQLVQSGAEVKKPGSSVKVSCKASGGTFSSYAISWVRQAPGQGLEWMGTIGPFEGQPRYAQKFQGRVTITADESTSTAYMELSSLRSEDTAVYYCARGGYISDFDVWGQGTLVTVSS VL: DIQMTQSPSSLSASVGDRVTITCRASQSISNYLAWYQQKPGKAPKLLIYDASSLQSGVPSRFSGSGSGTDFTLTISSLQPEDFATYYCQQYYYESITFGQGTKVEIKR', 10),
  ('J15: Anti-cKIT Fab′1 conjugated to Compound (5), DAR 4 (Fab, V domains shown, Compound (5) on native cysteine LC-214C (EU); Compound (5) on native cysteines HC-220C-226C-229C (EU)) VH: QVQLVQSGAEVKKPGSSVKVSCKASGGTFSSYAISWVRQAPGQGLEWMGVIFPAEGAPGYAQKFQGRVTITADESTSTAYMELSSLRSEDTAVYYCARGGYISDFDVWGQGTLVTVSS VL: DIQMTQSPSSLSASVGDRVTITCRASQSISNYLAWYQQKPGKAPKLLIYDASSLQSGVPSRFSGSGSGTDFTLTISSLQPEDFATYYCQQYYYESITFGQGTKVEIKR', 5),
  ('J16: Anti-cKIT Fab′1 conjugated to Compound (2), DAR 4 (Fab, V domains shown, Compound (2) on native cysteine LC-214C (EU); Compound (2) on native cysteines HC-220C-226C-229C (EU)) VH: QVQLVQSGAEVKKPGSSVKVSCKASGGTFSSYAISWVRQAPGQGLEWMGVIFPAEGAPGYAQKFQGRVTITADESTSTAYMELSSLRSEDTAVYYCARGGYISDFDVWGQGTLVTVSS VL: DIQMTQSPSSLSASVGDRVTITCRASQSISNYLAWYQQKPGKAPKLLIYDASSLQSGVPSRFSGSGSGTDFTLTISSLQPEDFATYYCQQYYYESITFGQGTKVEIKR', 7),
  ('J18: Anti-cKIT Fab′2 conjugated to Compound (5), DAR 4 (Fab, V domains shown, Compound (5) on native cysteine LC-214C (EU); Compound (5) on native cysteines HC-220C-226C-229C (EU)) VH: QVQLVQSGAEVKKPGSSVKVSCKASGGTFSSHALSWVRQAPGQGLEWMGGIIPSFGTADYAQKFQGRVTITADESTSTAYMELSSLRSEDTAVYYCARGLYDFDYWGQGTLVTVSS VL: DIQMTQSPSSLSASVGDRVTITCRASQDISQDLAWYQQKPGKAPKLLIYDASSLQSGVPSRFSGSGSGTDFTLTISSLQPEDFAVYYCQQYYYLPSTFGQGTKVEIKR', 11),
  ('J1: Anti-cKIT Fab′1 conjugated to Compound (1), DAR 4 (Fab, V domains shown, Compound (1) on native cysteine LC-214C (EU); Compound (1) on native cysteines HC-220C-226C-229C (EU)) VH: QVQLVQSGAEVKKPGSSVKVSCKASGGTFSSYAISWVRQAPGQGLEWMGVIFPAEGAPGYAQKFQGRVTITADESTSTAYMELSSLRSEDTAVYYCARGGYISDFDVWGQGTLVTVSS VL: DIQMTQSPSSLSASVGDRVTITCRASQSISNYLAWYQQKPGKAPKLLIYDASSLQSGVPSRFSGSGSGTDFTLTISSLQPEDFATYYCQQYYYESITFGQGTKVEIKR', 11);

// returns reported EC50 (ng/ml), cell viability after 7 days, Human CD34+ cells for input J2: Anti-cKIT Fab′2 conjugated to Compound (1), DAR 4 (Fab, V domains shown, Compound (1) on native cysteine LC-214C (EU); Compound (1) on native cysteines HC-220C-226C-229C (EU)) VH: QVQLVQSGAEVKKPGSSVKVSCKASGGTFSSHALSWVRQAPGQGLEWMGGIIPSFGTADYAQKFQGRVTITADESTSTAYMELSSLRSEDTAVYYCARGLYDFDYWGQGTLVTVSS VL: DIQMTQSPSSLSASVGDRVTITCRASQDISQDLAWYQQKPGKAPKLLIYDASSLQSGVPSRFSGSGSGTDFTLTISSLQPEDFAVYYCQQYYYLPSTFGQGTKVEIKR 11

Please answer likewise for J20: Anti-cKIT Fab′3 conjugated to mc-MMAF, DAR 4 (Fab, V domains shown, mc-MMAF on native cysteine LC-214C (EU); mc-MMAF on native cysteines HC-220C-226C-229C (EU)) VH: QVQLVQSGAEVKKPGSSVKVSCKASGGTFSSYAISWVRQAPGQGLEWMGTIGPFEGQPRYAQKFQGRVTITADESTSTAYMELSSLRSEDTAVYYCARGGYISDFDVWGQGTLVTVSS VL: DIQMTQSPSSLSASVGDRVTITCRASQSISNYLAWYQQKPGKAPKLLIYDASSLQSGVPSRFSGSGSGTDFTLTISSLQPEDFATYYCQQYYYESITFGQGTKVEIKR 25
